Target: RORγ (UniProt P51449)
Assay: RORγ Gal4 Reporter Gene Assay in 293T cells (firefly and renilla luciferase)
Format: cell-based, human
Measured pIC50 (FF) accompanies every entry in the list below.

compound-string	pIC50 (FF)
Cc1c(C(=O)NC2(CO)CC2)cc(-c2cc(C(C)(C)C)cc(C(C)(C)C)c2)n1CC1CCCCC1	6.2/6.2/6.2
Cc1c(C(=O)NC23CCC(C(=O)O)(CC2)CC3)cc(-c2ccc(S(=O)(=O)NC(C)(C)C)c(C(F)(F)F)c2)n1CC1CCCCC1	6.3/7.8/7.9
Cc1c(C(=O)NC2CS(=O)(=O)C2)cc(-c2cc(C(C)(C)C)cc(C(C)(C)C)c2)n1CC1CCCCC1	6.6/7.4/7.4
Cc1c(C(=O)NCC(C)(C)NC(=O)CCO)cc(-c2cc(C(C)(C)C)c3c(c2)C2(CCO3)CC2)n1CC1CCCCC1	6.0/7.3/7.3
